propertyLabel: melting point (°C)

recordSmiles | melting point (°C)
Nc1ccc(Br)nn1 | 194
OCc1cc(Cl)ccc1Cl | 78
O=C(Br)C(=O)Br | -19

a: CC(C)(C)c1cc(N)cc(C(C)(C)C)c1
b: OC(c1ccccc1)(c1ccccc1)[C@@H](c1ccccc1)N1CCCCC1
Ask | Lab note: record which item had the higher melting point, a or b . Indicate which entry you chose by stating its label.
Reply | b

====

propertyLabel: melting point (°C)

Some compounds with known melting point results, for comparison:
compound | melting point, °C
CC1=NN(c2ccccc2)C(=O)/C1=C\c1cccc(/C=C2\C(=O)N(c3ccccc3)N=C2C)c1 | 220
O=C(O)c1c(Cl)ccc2cc(Cl)cnc12 | 274
CCOCCN(Cc1ccc(CN(CCOCC)C(=O)C(Cl)Cl)cc1)C(=O)C(Cl)Cl | 140

P: FCF
Q: C=Cc1ccccc1OC
R: Cc1c(N/N=C(/C(=O)c2ccc([N+](=O)[O-])cc2)S(=O)(=O)c2ccccc2)c(=O)n(-c2ccccc2)n1C
S: O=C(Nc1ccccc1)OCCc1ccc(CCOC(=O)Nc2ccccc2)cc1
Ask | Ascending by melting point, please. State the ranking by listing the labels in the requested order.
Reply | P, Q, R, S

1: S=C1SCCS1
2: C=Cc1c(Cl)cccc1Cl
Ask | // compare: 1 vs 2 , metric melting point, want the smaller Indicate which entry you chose by stating its label.
Reply | 1
(1: 35 °C, 2: 89 °C)

A: FC(F)(F)c1nnc2sc(=S)[nH]n12
B: O=[N+]([O-])c1cncn1CCN1CCOCC1
Ask | Lab note: record which item had the higher melting point, A or B . Indicate which entry you chose by stating its label.
Reply | A

A: COc1cnc(NS(=O)(=O)c2ccc(N)cc2)nc1
B: CCOc1cc(OCC)c(C(=O)CCC(=O)O)cc1OCC
C: CCCCCC(C)=O
Ask | Ascending by melting point, please. State the ranking by listing the labels in the requested order.
Reply | C, B, A
(C: -35 °C, B: 150 °C, A: 215 °C)

P: Cc1ccnc2c1ccc1c(C)ccnc12
Q: O=S(=O)(Cl)c1ccc(Br)cc1Cl
R: CC=C(c1ccccc1)c1ccccc1
Ask | Reorder: melting point, max to min. State the ranking by listing the labels in the requested order.
Reply | P, Q, R

1: CC(=O)N(Nc1ccc(-c2ccc([N+](=O)[O-])cc2)cc1)c1ccccc1
2: CC1(c2ccc([N+](=O)[O-])cc2)Nn2c(nnc2C(F)(F)F)S1 (stereo unspecified)
Ask | // compare: 1 vs 2 , metric melting point, want the smaller Indicate which entry you chose by stating its label.
Reply | 1

I: CNc1ccc(NCCO)c2c1C(=O)c1ccccc1C2=O
II: O=C(Cl)c1cc2ccccc2s1
Ask | Lab note: record which item had the higher melting point, I or II . Indicate which entry you chose by stating its label.
Reply | I

====

propertyLabel: melting point (°C)

Some compounds with known melting point results, for comparison:
compound | propertyLabel | scaleUnit | recordedValue
O=C1NC(=O)C2(CCc3ccccc3C2)N1 (stereo unspecified) | melting point | °C | 268
NC(C(=O)O)c1ccc(O)cc1 (stereo unspecified) | melting point | °C | 240
Cc1ccc(N2CCNCC2)cc1C | melting point | °C | 63

a: N#Cc1c(N)cc(N)nc1Br
b: O=C(Nc1nc(-c2ccc(Br)cc2)cs1)c1ccccc1
Ask | // compare: a vs b , metric melting point, want the smaller Indicate which entry you chose by stating its label.
Reply | b
(b: 115 °C, a: 257 °C)
